Test: Pharmacokinetic analyses: apatinib and gefitinib plasma concentrations (LC–MS/MS, non‐compartmental)
Conditions: human, plasma, oral, AUC0‐∞, gefitinib 250 mg + apatinib 500 or 250 mg, Day 15 (n = 11); Geometric Mean (%CV)
Reported Metric: AUC (ng·h/mL)
Give a bare numeral; the unit ng·h/mL is implied.

Input: Answer with the recorded AUC for the compound listed here: COc1cc2ncnc(Nc3ccc(F)c(Cl)c3)c2cc1OCCCN1CCOCC1
Output: 18100

###

Assay: Pharmacokinetic analyses: apatinib and gefitinib plasma concentrations (LC–MS/MS, non‐compartmental)
Conditions: human, plasma, oral, Vd, gefitinib 250 mg + apatinib 500 or 250 mg, Day 1 (n = 11); Mean (SD)
Reported Metric: Vd
State the value, then name its unit.

Input: Answer with the recorded Vd for the molecule listed here: COc1cc2ncnc(Nc3ccc(F)c(Cl)c3)c2cc1OCCCN1CCOCC1
Output: 1100 L

###

Test: Pharmacokinetic analyses: apatinib and gefitinib plasma concentrations (LC–MS/MS, non‐compartmental)
Details: human, plasma, oral, T1/2, gefitinib 250 mg + apatinib 500 or 250 mg, Day 15 (n = 11); Mean (SD)
Reported Metric: half-life (h)
Give a bare numeral; the unit h is implied.

Input: Answer with the recorded half-life for the molecule listed here: COc1cc2ncnc(Nc3ccc(F)c(Cl)c3)c2cc1OCCCN1CCOCC1 [Gefitinib]
Output: 30

###

Assay: Pharmacokinetic analyses: apatinib and gefitinib plasma concentrations (LC–MS/MS, non‐compartmental)
Conditions: human, plasma, oral, Tmax, gefitinib 250 mg + apatinib 500 or 250 mg, Day 1 (n = 11); Median (range)
Reported Metric: Tmax (h)
Give a bare numeral; the unit h is implied.

Input: Answer with the recorded Tmax for the compound listed here: COc1cc2ncnc(Nc3ccc(F)c(Cl)c3)c2cc1OCCCN1CCOCC1
Output: 3

###

Assay: Pharmacokinetic analyses: apatinib and gefitinib plasma concentrations (LC–MS/MS, non‐compartmental)
Conditions: human, plasma, oral, CL, gefitinib 250 mg + apatinib 500 or 250 mg, Day 1 (n = 11); Mean (SD)
Reported Metric: clearance (mL/min)
Give a bare numeral; the unit mL/min is implied.

Input: Answer with the recorded clearance for the molecule listed here: COc1cc2ncnc(Nc3ccc(F)c(Cl)c3)c2cc1OCCCN1CCOCC1
Output: 683

###

Assay: Pharmacokinetic analyses: apatinib and gefitinib plasma concentrations (LC–MS/MS, non‐compartmental)
Settings: human, plasma, oral, Vd, gefitinib 250 mg + apatinib 500 or 250 mg, Day 15 (n = 11); Mean (SD)
Reported Metric: Vd (L)
Give a bare numeral; the unit L is implied.

Input: Answer with the recorded Vd for the molecule listed here: COc1cc2ncnc(Nc3ccc(F)c(Cl)c3)c2cc1OCCCN1CCOCC1
Output: 1330

###

Experiment: Pharmacokinetic analyses: apatinib and gefitinib plasma concentrations (LC–MS/MS, non‐compartmental)
Details: human, plasma, oral, Vdss, steady state, Gefitinib 250mg + apatinib; Mean±SD
Procedure: In the two cohorts, PK assessment consisted of a single‐dose‐administration on Cycle 1, Day 1's (C1, D1) test and a continuous‐dose‐administration on Cycle 1, Day 15′s (C1, D15) test. […] The AUC was estimated by using the linear trapezoidal rule method and T 1/2 was determined by linear regression of the terminal slope of the logarithmic plasma concentration‐time profile. Descriptive statistics were measured for the PK parameters using mean with its corresponding standard deviation (SD). […]
Reported Metric: Vd (L)
Give a bare numeral; the unit L is implied.

Input: Answer with the recorded Vd for the compound listed here: COc1cc2ncnc(Nc3ccc(F)c(Cl)c3)c2cc1OCCCN1CCOCC1 [Gefitinib]
Output: 880

###

Test: Pharmacokinetic analyses: apatinib and gefitinib plasma concentrations (LC–MS/MS, non‐compartmental)
Details: human, plasma, oral, Cmax, gefitinib 250 mg + apatinib 500 or 250 mg, Day 1 (n = 11); Table 2: Geometric Mean (%CV)
Reported Metric: Cmax (ng/mL)
Give a bare numeral; the unit ng/mL is implied.

Input: Answer with the recorded Cmax for the compound listed here: COc1cc2ncnc(Nc3ccc(F)c(Cl)c3)c2cc1OCCCN1CCOCC1
Output: 272

Value source: paper PMC7403827
